# Tested on: SF-295 CNS
# experimental_details: NCI tumour cell line growth inhibition, 48 h
Form field: TGI (one value per entry).

Entry CC(C)CC1N=C(OCc2ccccc2)OC1=O (stereo not drawn) : TGI on SF-295 CNS = > 100 µM

###

# Tested on: TK-10 renal
# experimental_details: NCI tumour cell line growth inhibition, 48 h
Quick reference for GI50 among some compounds

Consider the worked cases shown below.
structure_string	tested_system	GI50
COC(=O)c1cccc(NC(=O)c2ccc(NC3=C(Cl)C(=O)N(Cc4ccccc4)C3=O)cc2)c1	TK-10 renal	23.4 µM
Nc1c(C(=O)Nc2cccc(C(F)(F)F)c2)sc2nc3c(cc12)CCCCCC3	TK-10 renal	2.18 µM

Let's switch to this compound now.
// field: GI50; key: `COc1cc(C(=O)NN=C2c3ccccc3-c3ccccc32)cc(OC)c1OC` ; value = 7.86 µM

Recorded values, source PubChem BioAssay (NCI).
